Tested on: Klebsiella pneumoniae
conditionContext: Concentration 20 uM; ASSAY_TEST Inhibition of Bacterial Growth; detection method Absorption (OD600); MEDIA CAMHB; plate type 384well; NBS; CORNING #3640; time 18 hr
Description: Antibacterial activity against Klebsiella pneumoniae MDR ATCC 70063 (CO-ADD:GN_003); MIC in CAMBH media using NBS plates, by OD(600)
Results with a measured potency or affinity are listed apart.
Item-by-item account of Inhibition
Numeric only. Scale: %

// known answers, use as guide
Cl.Oc1ccc2c3c1OC1C(O)CC[C@@]4(O)[C@@H](C2)N(CC2CCC2)CC[C@]314 (stereo not given in full)
8.11
C#C[C@]1(OC(C)=O)CC[C@H]2[C@@H]3CCC4=CC(=O)CC[C@@H]4[C@H]3CC[C@@]21C [NORETHINDRONE ACETATE]
-0.71
CN1CCC[C@H]1c1cccnc1
-4.81
Cl.O=C1c2cccc3c2[C@H](CCC3)CN1[C@@H]1CN2CCC1CC2 [PALONOSETRON HYDROCHLORIDE]
8.73

Q. I'm curious: which Inhibition was measured for O=C1CN=C(c2ccccc2)c2cc([N+](=O)[O-])ccc2N1 tested on Klebsiella pneumoniae?
A. 13.18

----------
Tested on: Candida albicans
conditionContext: 20 µM
Description: Antifungal activity against Candida albicans ATCC 90028 (CO-ADD:FG_001); MIC in YNB media using NBS plates, by OD630
Entries with a potency or affinity are not part of this list.
experimentalEndpoint: Inhibition (%)
Numeric only. Scale: %

// known answers, use as guide
c1ccc2c3c([nH]c2c1)CNCC3
3.92
Cl.O=C1CC[C@@]2(O)[C@H]3Cc4ccc(O)c5c4[C@@]2(CCN3CC2CC2)[C@H]1O5 [NALTREXONE HYDROCHLORIDE]
3.06
Br.Br.CN1CC[C@]2(c3cccc(O)c3)Cc3nc4ccccc4cc3C[C@H]2C1.O
0.66
CCC(COC(=O)c1cc(OC)c(OC)c(OC)c1)(c1ccccc1)N(C)C.O=C(O)/C=C\C(=O)O (centres undefined)
3.77
NCCc1ccccn1
3.53

// next entry
Q. // Inhibition lookup, key: CC(C)[C@]12O[C@H]1[C@@H]1O[C@]13[C@]1(O[C@H]1C[C@H]1C4=C(CC[C@@]13C)C(=O)OC4)[C@@H]2O [TRIPTOLIDE]
A. 1.65

----------
System: Cryptococcus neoformans
conditionContext: Concentration 20 uM; ASSAY_TEST Inhibition of Fungal Growth; detection method Resazurin; Absorption (OD600-OD570); plate type 384well; NBS; CORNING #3640
Description: Antifungal activity against Cryptococcus neoformans H99 ATCC 208821 (CO-ADD:FG_002); MIC in YNB media using NBS plates, by Resazurin OD(600-570)
Entries with a potency or affinity are not part of this list.
Item-by-item account of Inhibition
Numeric only. Scale: %

// known answers, use as guide
CC(=O)CC(c1ccccc1)c1c([O-])c2ccccc2oc1=O.[Na+] (centres undefined) [WARFARIN SODIUM]
0.59
CC(C)CC(N(C)C)C1(c2ccc(Cl)cc2)CCC1 (centres undefined)
1.52
CCC1(c2ccc(N)cc2)CCC(=O)NC1=O (centres undefined) [AMINOGLUTETHIMIDE]
-5.32
COc1ccc(CCN)cc1OC
-1.54

Q. // Inhibition lookup, key: N=C(NCc1ccc(Cl)cc1)SCCCc1c[nH]cn1
A. -0.61

Q. // Inhibition lookup, key: C[C@]12CC(C=O)=C(O)C[C@@H]1CC[C@@H]1[C@@H]2CC[C@@]2(C)[C@H]1CC[C@]2(C)O
A. 3.15

Q. // Inhibition lookup, key: Cl.O.Oc1cc2c(cc1O)[C@H]1c3ccccc3CN[C@@H]1CC2
A. -4.18

Q. // Inhibition lookup, key: NC1=NC(=O)C(c2ccccc2)O1 (centres undefined)
A. -5.45

Q. // Inhibition lookup, key: CN(C)CCOc1ccc(/C(=C(/CCCl)c2ccccc2)c2ccccc2)cc1.O=C(O)CC(O)(CC(=O)O)C(=O)O [TOREMIFENE CITRATE]
A. -7.47
